The measured values listed here are drawn from the nanobody polyreactivity screen of Harvey et al. (2022).

- Procedure Text: yeast display, Sf9 membrane polyspecificity reagent, FACS + sequencing; frameworks hold sequencing errors
Endpoint: polyreactivity (PSR sort gate)

{"Sequence Record": "QVQLVESGGGLVQAGGSLRLSCAASGSTFWPYAMGWYRQAPGKERELVAAINYSSGSTYYADSVKGRFTISRDNAKNTVYLQMNSLKPEDNAVYYCAKGWYAGYPYDYWGQGTQVTVSS", "polyreactivity (PSR sort gate)": "low polyreactivity"}
{"Sequence Record": "QVQLVESGGGLVQAGGSLRVSCAASGSIFGTYAMGWYRPAPGKERELVAAITSDGVDTYYADSVKGRFTISRDNAKNTVYLQMNSLKPEDTEVYYCAAEYEGLYGYGYWGQGTQVTVSS", "polyreactivity (PSR sort gate)": "high polyreactivity"}
{"Sequence Record": "QVQLVESGGGLVQAGGSLRLSCAASGIIFRRYAMGWYRQAPGKERELVATITWSGGSTYYADSVKGRFTISRDNAKNTVYLQMNSLKPEDTAVYYCAKRGSRLYRLDYWGQGTQVTVSS", "polyreactivity (PSR sort gate)": "high polyreactivity"}
{"Sequence Record": "QVQLLESGGGLVQAGGSLRISCAASGFIFDYYMGWYRQAPGKERELVARISYTGGSTYYADSVKGRFTISRDNAKNTVYLQMNSLKPEDTAVYYCATRGAEAERFASYEFDYWGQGTQVTVSS", "polyreactivity (PSR sort gate)": "low polyreactivity"}
{"Sequence Record": "QVQLVESGAGLVQAGGSLRLSCAASGFIFEINAMGWYRQAPGKERELVAVITNSGGSTYYADSVKGRFTISRDNAKYTVYLQMNSLKPEDTAVYYCAADAVHYTNDWYDYWGQGTQVTVSS", "polyreactivity (PSR sort gate)": "low polyreactivity"}
{"Sequence Record": "QVQLVESGGGLVQAGGSLRLSCAASGSTFGAYAMGWYRQAPGKERELVAAISSSGGRTYYADSVKGRFTISRDNAKNTVYLQMNSLKPEDTAVYYCATYYRHYDLLYYYWGQGTQVTVSS", "polyreactivity (PSR sort gate)": "high polyreactivity"}
{"Sequence Record": "QVQLVESGGGLVQAGGSLRLSCAASGIIFPYYAMGWYRQAPGKERELVAAISSRDGRTYYADSVKGRFTISRDNAKNTVYLQMNSLKPEDTAVYYCAARAVGGVRGYRYDYWGQGTQVTVSS", "polyreactivity (PSR sort gate)": "high polyreactivity"}
{"Sequence Record": "QVQLVESGGGLVEAGGSLRLSCAASGGTFLRYAMGWSIQAPGKERELVAAITYRNGRTYYADSVKGRFTISRDNAKNTVYLQMNSLKPEDTAVYYCAADSTPRGNPAYDYYYWGQGTQVTVSS", "polyreactivity (PSR sort gate)": "high polyreactivity"}
{"Sequence Record": "QVQLVESGGGLVQAGGSLRLSCAASGRIFYRYAMGWYRQAPGKERELVAAIRYSGGRTYYADSVKGRFTISRDNAKNTVYLQMNSLKPEDTAVYYCAADGQWYYAPFRGGDYENDYWGQGTQVTVSS", "polyreactivity (PSR sort gate)": "low polyreactivity"}
{"Sequence Record": "QVQLVESGRGLVQAGGSLRLSCAASGRIFDKYAMGWYRQAPGKERELVAAISSSGGSTYYADSVKGRFTISRDNAKNTVYLQMNSLKTEVTAVYYCARQRYYGYYYWGQGTQVTVSS", "polyreactivity (PSR sort gate)": "high polyreactivity"}

Reported polyreactivity (PSR sort gate), sequence `QVQLVESGGGLVQAGGSLRLSCAPSGRTFVHYTMGWYRQAPGKERELVAAISGTGTSTYYADSVKGRFTISRDNAKNTVYLQMNSLKPEDTAVYYCARRYWYPDAFYRYDYWGQGTQVTVSS` : ____ low polyreactivity

====

- Procedure Text: yeast display, Sf9 membrane polyspecificity reagent, FACS + sequencing; frameworks hold sequencing errors
Endpoint: polyreactivity (PSR sort gate)

{"Sequence Record": "QVQLVESGGGLVQAGGSLRLSCAASGLTFAKNAMGWYRQAPGKERELVAAITTGGSTYYADSVKGRFTISRDNAKNTVYLQMNSLKPEDTAVYYCAAQILVRHIPYYYWGQGTQVTVSS", "Meas Value": "high polyreactivity"}
{"Sequence Record": "QVQLQESGGGLVQAGGSLRLRCAASRNNSGSSDLGWYHQAPGKEREFVASITSGGTTYYADSVKGRFTISRDNAKNTVYLQMNSLKPEDTAVYYCAVGDPADAEFGYWGQGTQVTVSS", "Meas Value": "low polyreactivity"}
{"Sequence Record": "QVQLVESGGGLVQAGGSLRLSCAASGSTLRYYAMGWYRQAPGKEREFVAAISWRGGSTYYADSVKGRFTISRDNAKNTVYLQMNSLKPEDTAVYYCAAKALYAYRLYDYWGQGTQVTVSS", "Meas Value": "high polyreactivity"}
{"Sequence Record": "QVQLVESAGGLVQAGGSLSLSCAASGFIFDGYAMGWYRQAPGKERELVAAINFSGGSTYYADSVKGRFTISRDNAKNTVYLQMNSLKPEDTSVYYCNADLEWYWVQFGYGYWGQGTQVTVSS", "Meas Value": "low polyreactivity"}
{"Sequence Record": "QEQLLESGGGLLQAGGSLRLSCAASGSNFVSVTMGWYRQATGKELELVASIGRGSTTNHADSVKGRFTISRDNAKNIVYLLMNSLKPEDTAVYYCAALESYGKYHGYWGQGTQVTVSS", "Meas Value": "low polyreactivity"}
{"Sequence Record": "QDQHVESGGGLVQAGGSLRLRCSASVRTYFDYDMGRYRQAPGKERELVAAISQSGGSTYYADSVKGRFTISRDNAKYTFYLVMNSLKPEDTGVYECNAYYGYGHRIYDYWGQGTQVTVSS", "Meas Value": "high polyreactivity"}

Would you mind telling me what polyreactivity (PSR sort gate) value was observed for `QVQLVESGGGLLQAGGSLRLSCAASGSIFGSYVMGWYRQAPGKERELVAAITASGGSTYYADSVKGRFTISRDTAKNTVYLQMNSLKPEDTAVYYCATKRTWPVGEMYYWGQGTQVTVSS` ? high polyreactivity

# polyreactivity (PSR sort gate) lookup, item `QVQLVESGGGLVQAGGSLRLSCAASGRIFVVNAMGWYRQAPGKERELVATITRSGGITYYADSVKGRFTISRDNAKNTVYLQMNSLNPEDTAVYYCNADVLFYTYYTRGRFDFDYWGQGTQVTVSS` low polyreactivity

Would you mind telling me what polyreactivity (PSR sort gate) value was observed for `QVQLVESGGGLVQAGGSLRLSCAASGSIFVGYAMGWYRQAPGKERELVAAITKRGGSTSYADSVKGRFTISRDNAKNTVYLQMNSLKPEDTAVYYCAKLYYRHLYEYDYWGQGTQVTVSS` ? high polyreactivity

# polyreactivity (PSR sort gate) lookup, item `QVQLVESGGGLVQAGGSLRLSCAASGFTFYLNAMGWYRQAPGKERELVAAITRRGTSTYYADSVKGRFTISRDNAKNTVYLQMNSLKPEDTAVYYCAARPLDYWGQGTQVTVSS` high polyreactivity

Fill blank: measured polyreactivity (PSR sort gate) of the sequence `QVQLVESGGGLVQAGGSLRLSCAASGSIFANNAMGWYRQAPGKERELVAAISSSGGSTYYADSVKGRFTISRDNAKNTVYLQMNSLKPEDTAVYYCAARFYYGRRYSTSYDYWGQGTQVTVSS` is ____. high polyreactivity

Request the reported polyreactivity (PSR sort gate) associated with `QVQLVESGGGIVQAGCSLRLSSAASGFTFYGYAMGWYRQAPGKERELVAAMSWDGSSTYYADSVKGRFTISRDNAKNTVYLPMNSLKPEDTAVYYCAREYYYGYYYPIQSDYWGQGTQVTVSS` low polyreactivity

====

- Procedure Text: yeast display, Sf9 membrane polyspecificity reagent, FACS + sequencing; frameworks hold sequencing errors
Endpoint: polyreactivity (PSR sort gate)

Previously resolved entries follow.
{"Sequence Record": "QVQLVESGGGIVQAGGSLRLSCAASGIIFPLYAMGWYRPAPGKERELVAAIRSTGGSTYYADSVKGRFTISRDNANNTVYLQMNSLKPEDTAVYYCNARQNRRQGNVGYWGQGTQVTVSS", "polyreactivity (PSR sort gate)": "low polyreactivity"}
{"Sequence Record": "QVQLVESGGGLVQAGGSLRLSCAATGSTFATNAMGWYKQAPGKEREFVAAISRRGGRTYYADSVKGRFTISRDNAKNTVYLKMNSVKPEDTAVYYCNTLRVGWGQGTQVTVSS", "polyreactivity (PSR sort gate)": "high polyreactivity"}
{"Sequence Record": "QLQLVESGGGLVQAGGSLRLSCAASGRIFGKNDMRSYRQAPGKERELVAAITTSGGSTDYADSVKGRFTISRDKAKNTVYLQMNSLKPEDTAVYYCNAAFQNKAYIRKYKYDYWGQGTQVTVSS", "polyreactivity (PSR sort gate)": "low polyreactivity"}
{"Sequence Record": "QVQLVESGGGLVQAGGSLRLSCAASGRTFWRNTMGWYRQAPGKQREFVAASTFSGVRTYYADSVKGRFTISRDNAKNTVYLQMNSLKPEDTAVYYCAKSRQYIGGFDYWGQGTQVTVSS", "polyreactivity (PSR sort gate)": "high polyreactivity"}

Now look at this one.
Would you kindly share the measured polyreactivity (PSR sort gate) for `QVQLVESGGGLVQAGGSLRLSCAASGSIFNLYAMGWYRQAPGKERELVAGIRWSGGRTYYADSVKGRFTISRDNAKYTVYLQMNSLKPEDTAVYYCAAEYRSWRYTGYSYYYWGQGTQVTVSS` ? high polyreactivity
